Assign OD450 to each entry below.
Target: T1, recombinant His-tagged Der p1 (dust mite, UniProt P08176 99-320, limits assumed)
T1 construct: Recombinant His-tagged protein made by the applicant; also called Der p1-His; Der pl; not shown: His tag
T1 sequence (looked up): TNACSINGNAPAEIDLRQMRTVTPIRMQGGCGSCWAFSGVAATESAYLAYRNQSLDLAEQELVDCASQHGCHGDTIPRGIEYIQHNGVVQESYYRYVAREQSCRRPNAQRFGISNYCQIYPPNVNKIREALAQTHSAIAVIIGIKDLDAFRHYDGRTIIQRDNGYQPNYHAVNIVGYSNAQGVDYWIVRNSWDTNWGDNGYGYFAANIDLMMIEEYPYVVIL
Assay: ELISA, Der p1 on plate, biotinylated peptide at 3.333, duplicate 1
No end group written: not given here.
Express the reported value numerically, then name its unit.

- YPTWAYR (also: biotinylated, site not given here, 7-amino acid peptide from a phage display library) [SDAB22110-2-C3]: 0.162 OD450
- VVAFGIS (also: biotinylated, site not given here, 7-amino acid peptide from a phage display library) [SDAB22110-2-G1]: 0.147 OD450
- GIHMALM (also: biotinylated, site not given here, 7-amino acid peptide from a phage display library) [SDAB22110-2-B2]: 0.132 OD450
- HSGPECG (also: biotinylated, site not given here, 7-amino acid peptide from a phage display library) [SDAB22110-2-D3]: 2.77 OD450

Please state OD450 for every binder in the list that follows.
1. AVVSFYP (also: biotinylated, site not given here, 7-amino acid peptide from a phage display library) [SDAB22110-2-F1]
2. LTGYGMS (also: biotinylated, site not given here, 7-amino acid peptide from a phage display library) [SDAB22110-2-D9]

1. 0.221 OD450
2. 0.154 OD450
